- Target: human P2X4 receptor (Homo sapiens (Human))
- Sequence (Q99571 whole entry): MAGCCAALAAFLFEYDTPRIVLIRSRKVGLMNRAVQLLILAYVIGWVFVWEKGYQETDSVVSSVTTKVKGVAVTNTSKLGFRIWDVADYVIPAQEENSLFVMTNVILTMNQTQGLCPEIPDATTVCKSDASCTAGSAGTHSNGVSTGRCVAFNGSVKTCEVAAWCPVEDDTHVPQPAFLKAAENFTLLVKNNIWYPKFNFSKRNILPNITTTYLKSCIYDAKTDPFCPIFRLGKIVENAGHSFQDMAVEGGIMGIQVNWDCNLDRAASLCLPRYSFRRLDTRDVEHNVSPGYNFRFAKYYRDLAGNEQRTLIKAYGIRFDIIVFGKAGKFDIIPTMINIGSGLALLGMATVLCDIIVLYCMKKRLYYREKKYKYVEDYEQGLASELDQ
- Assay protocol: P2X4 receptor antagonist activity (ATP-induced intracellular calcium, Fura-2 AM)
- Assay context: 1321N1 cells stably expressing human P2X4 receptor; test substance 15 minutes before addition of ATP; Fura-2 AM F340/F380; read-out: Inhibitory activity IC50
- Protocol: The ATP receptor (human P2X4) was introduced into the 1321N1 cells, and the cells were used as a stable ATP receptor expression system. The P2X4-expressing 1321N1 cells were seeded on a 96-well plate, cultured under the conditions of 37° C. and 5% CO2 for 24 hours, and used for calcium measurement. […] For the measurement, a microplate reader, Fluostar Optima (BMG Labtech), was used. […]
Where a name gives a salt, the structure may show the parent alone.
Below, each entry is listed alongside its reported log10(IC50).
On a log10 scale: recorded IC50, unit nM.

Compound | log10(IC50)
NC(=O)c1cccc(CCc2nccn2-c2ccc(N3C(=O)CC(=O)Nc4c3ccc3ccccc43)cc2)c1 | 2.11
O=C1CC(=O)N(c2ccc(-n3ccnc3CCc3cccc(C(F)(F)F)c3)cc2)c2ccc3ccccc3c2N1 [Example 38, hydrochloride] | 2.74
O=C1CC(=O)N(c2ccc(-n3nnnc3CCc3cccnc3)cc2)c2ccc3ccccc3c2N1 [Example 3, hydrochloride] | 2.58

q: // lookup log10(IC50) for `O=C1CC(=O)N(c2ccc(-n3ccnc3CNc3ccccc3)cc2)c2ccc3ccccc3c2N1`
a: 3.11
